Property: melting point; scope: individual compounds

Some solved cases for reference:
compound	melting point
C=C(C)[C@@H]1CC[C@]2(C(=O)N[C@H]3C[C@@H](C(=O)N4CCCC4)C3(C)C)CC[C@]3(C)[C@H](CC[C@@H]4[C@@]5(C)CC[C@H](OC(=O)CC(C)(C)C(=O)O)C(C)(C)[C@@H]5CC[C@]43C)[C@@H]12	110 to 114 °C
CC(C)(C)OC(=O)Nc1ccccc1C1Cc2ccccc2N1C(=O)OC(C)(C)C (stereo not drawn)	148 to 150 °C
CC(C)(Oc1ccc(OC(CCC(F)(F)F)c2cccc3c2cnn3-c2ccc(C(F)(F)F)cc2)cc1)C(=O)O (racemic)	175 to 180 °C
CNC(=O)c1cc2c(Oc3ccc(Cl)c(F)c3)cncc2s1	62 to 64 °C
CC(CCCC1(C(=O)NCC(F)(F)F)c2ccccc2-c2ccccc21)N1CCC(NC(=O)OC(C)(C)C)CC1 (stereo not drawn)	58 to 60 °C
O=C(NCCO)c1cccc(-c2ccc3c(n2)N(Cc2ccc(Cl)cc2Cl)CC3)c1	142 to 143 °C

Per the record, CCc1ccc(C(=O)Cc2ccc(Br)cc2)cc1 has melting point of 146 °C

Per the record, Cc1nc2c(s1)CN=C(c1ccccc1Cl)c1cc(Cl)ccc1-2 has melting point of 162 to 164 °C

Per the record, COc1ccc(CNc2nc(OCc3ccccn3)ncc2C(=O)c2ccccn2)cc1Cl has melting point of 81 to 84 °C

Per the record, CCCCN(Cc1ccc2cc(O)ccc2c1)C(=O)c1c(C)oc2ccccc12 has melting point of 126 to 128 °C

Per the record, O=c1nc(-c2cccc(CCc3nnn[nH]3)n2)sc2ccccc12 has melting point of 157 °C

Per the record, Cc1nc(N)nc(Cl)c1C has melting point of 212 to 220 °C

Per the record, COc1ccnc(CSc2nc3cc(OC(F)(F)C(F)Cl)ccc3[nH]2)c1 (stereo not drawn) has melting point of 120 °C

Per the record, COCCOCCn1cc(C(=O)NCc2ccc(Cl)cc2)c(=O)c2cc(CN3CC[C@@H](O)C3)ccc21 has melting point of 106 to 109 °C

Per the record, CN1C(=O)Cc2cccc(C(=O)c3ccccc3)c21 has melting point of 89 to 90.5 °C

Per the record, Cc1c2n(c3ccccc13)C(=O)C(C(O)c1cccnc1)CC2 (stereo not drawn) has melting point of 83 to 86 °C

Per the record, COc1ccc(CC2Cc3cccc(-c4cccc(C(=O)NCCN5CCCC5)c4)c3O2)cc1OC (stereo not drawn) has melting point of 134 to 135 °C

Per the record, CCOc1ncc(I)cc1C(N)=O has melting point of 176 to 179 °C
